This collection of values is drawn from patent US9499550B2.

# Tested on: HCV genotype 1a (H77 strain) replicon in HUH-7 cells
# method description: HCV replicon luciferase reporter assay, genotype 1a
# Assay type: cell-based
# assay context: Hepatitis C virus, Huh-7, 72 h, HCV genotype 1a replicon luciferase, 3 days incubation, read-out: LE_1a (EC50)
endpoint label: EC50

# compound, EC50
records = [
    ("CCn1nc(O[C@@H]2C[C@H]3C(=O)N[C@]4(C(=O)NS(=O)(=O)C5(C)CC5)C[C@H]4/C=C\\CC[C@@H](C)C[C@@H](C)[C@H](NC(=O)C(=O)N(C)C)C(=O)N3C2)c2ccccc2c1=O [Compound 5063]", "≥ 1 µM"),
    ("CCn1nc(O[C@@H]2C[C@H]3C(=O)N[C@]4(C(=O)NS(=O)(=O)C5CC5)C[C@H]4/C=C\\CC[C@H](C)C[C@@H](C)[C@H](NC(=O)NC(C)(C)C)C(=O)N3C2)c2ccccc2c1=O [Compound 5071]", "≥ 1 µM"),
    ("CCn1nc(O[C@@H]2C[C@H]3C(=O)N[C@]4(C(=O)NS(=O)(=O)C5(C)CC5)C[C@H]4/C=C\\CC[C@H](C)C[C@@H](C)[C@H](NC(=O)C(=O)N(C)C)C(=O)N3C2)c2ccccc2c1=O [Compound 5062]", "≥ 1 µM"),
]

Query compound follows.
Form field: EC50 recorded for CCn1nc(O[C@@H]2C[C@H]3C(=O)N[C@]4(C(=O)NS(=O)(=O)C5CC5)C[C@H]4/C=C\CC[C@H](C)C[C@@H](C)[C@H](NC(=O)C(=O)N(C)C)C(=O)N3C2)c2ccccc2c1=O [Compound 5075] with HCV genotype 1a (H77 strain) replicon in HUH-7 cells (enter value)
≥ 1 µM
